assay: gradient 5% acetonitrile 3 min, to 50% in 2 min, to 85% in 15 min, held 3 min, 100 µL/min; conditions: column: Zorbax Extend-C18 2.1 x 50 mm; eluents: water / acetonitrile, 0.1% formic acid
Field 'label' (enum: met / not met). Set to met when RP-LC retention time is strictly under 700 s; else not met.

[[record]]
compound = "CCCCCN1CC(=O)N(c2cccc(Cl)c2)[C@@H]2CS(=O)(=O)C[C@@H]21"
class_assignment = "not met"

[[record]]
compound = "CC1CCN(S(=O)(=O)c2ccc(-c3nnc(C(=O)NCCCN4CCOCC4)o3)cc2)CC1"
class_assignment = "met"

[[record]]
compound = "COc1ccc(-c2c(C)noc2NC(C)=O)cc1S(=O)(=O)N1CCC(C)CC1"
class_assignment = "not met"

[[record]]
compound = "O=C(Nc1cccc([N+](=O)[O-])c1)NC1CCS(=O)(=O)C1 (stereo not given)"
class_assignment = "met"

[[record]]
compound = "O=C(NCCCn1cccn1)c1cn2ccccc2n1"
class_assignment = "met"

[[record]]
compound = "O=C([C@@H]1C[C@H](F)CN1S(=O)(=O)c1ccccc1)N1CCOCC1"
class_assignment = "met"

[[record]]
compound = "COc1cccc(N2CCN(C(=O)c3[nH]c(C)c(S(=O)(=O)N4CCOCC4)c3C)CC2)c1"
class_assignment = "not met"

[[record]]
compound = "Cc1ccc(-n2ccc(=O)c(-c3nc(-c4ccc(F)c(Cl)c4)no3)n2)cc1"
class_assignment = "not met"

[[record]]
compound = "O=C(Cn1cccc(-c2nc(-c3ccc(F)cc3)no2)c1=O)Nc1ccc(F)cc1F"
class_assignment = "not met"

[[record]]
compound = "Cc1ccc(-n2nc(CO)c(C(=O)NC3CC3)n2)cc1C"
class_assignment = "not met"

[[record]]
compound = "O=C(COc1ccccc1F)N1CC(c2nc3ccccc3[nH]2)C1"
class_assignment = "met"

[[record]]
compound = "O=C(NCCC1=CCCCC1)C1CCCN(c2nc3ccsc3c(=O)n2Cc2ccc(F)cc2)C1 (stereo not given)"
class_assignment = "not met"

[[record]]
compound = "c1ccc2c(Oc3nc(Nc4ccc(N5CCOCC5)cc4)c4ncn(C5CCCCC5)c4n3)cccc2c1"
class_assignment = "not met"

[[record]]
compound = "O=C(CCC1CCCC1)Nc1ccc(CC(=O)NC2CC2)cc1"
class_assignment = "not met"

[[record]]
compound = "COCCn1nc2n(c1=O)CCC1(CC2)CCN(C(=O)C2CCOC2)CC1 (stereo not given)"
class_assignment = "met"

[[record]]
compound = "Cc1nnc(C2CCCCCN2C(=O)c2cnco2)o1 (stereo not given)"
class_assignment = "met"

[[record]]
compound = "COCC(=O)Nc1ccc2c(c1)N(C(=O)c1cccs1)CCC2"
class_assignment = "not met"


---

Entries and their RP-LC retention time
assay: gradient 5% acetonitrile 3 min, to 50% in 2 min, to 85% in 15 min, held 3 min, 100 µL/min; conditions: column: Zorbax Extend-C18 2.1 x 50 mm; eluents: water / acetonitrile, 0.1% formic acid
MEASUREMENT KIND: RP-LC retention time (s)

[[record]]
molecule = "Cc1ccnc(N2CCC(C(=O)N3CCN(Cc4ccc5c(c4)OCO5)CC3)CC2)n1"
display_unit = "s"
numeric_value = 590

[[record]]
molecule = "CCCCNC(=O)CN1C(=O)C2CCCCN2c2ccc(S(=O)(=O)N3CCCC3)cc21 (centres undefined)"
display_unit = "s"
numeric_value = 873

[[record]]
molecule = "CCCC(=O)Nc1ccc(-n2cnc(C(=O)N3CCN(c4ccccc4F)CC3)c2)nc1"
display_unit = "s"
numeric_value = 788

[[record]]
molecule = "CCc1nc(-c2nnn(-c3ccc(C)cc3)c2C)no1"
display_unit = "s"
numeric_value = 945

[[record]]
molecule = "CCOC(=O)c1c(C)c(C(=O)C(C)N(CC)C(=O)c2ccc(Cl)cc2)c(C)n1C (centres undefined)"
display_unit = "s"
numeric_value = 876

[[record]]
molecule = "COCCCNC(=O)C1CCN(C(=O)c2ncn3c2COC(c2ccc(F)cc2)C3)CC1 (centres undefined)"
display_unit = "s"
numeric_value = 626

[[record]]
molecule = "c1ccc(COCC2CCN(Cc3ccccc3)CC2)cc1"
display_unit = "s"
numeric_value = 588

[[record]]
molecule = "CC1CCCN(CCCNC(=O)CCCn2c(=O)c3cccn3c3ccc(F)cc32)C1 (centres undefined)"
display_unit = "s"
numeric_value = 650

[[record]]
molecule = "CN1C(=O)c2cc(C(=O)NCc3ccccc3F)nn2CC1(C)C(=O)NCc1ccc(F)cc1 (centres undefined)"
display_unit = "s"
numeric_value = 792

[[record]]
molecule = "Cc1ccc(Nc2nc(N3CCN(c4ncccn4)CC3)nc3c2C(=O)CCC3)cc1"
display_unit = "s"
numeric_value = 1220

[[record]]
molecule = "COC(=O)c1cccc(NC(=O)c2c[nH]c3ncccc23)c1"
display_unit = "s"
numeric_value = 708

[[record]]
molecule = "O=C1C2N=NN(Cc3nc(-c4ccc5c(c4)OCO5)no3)C2C(=O)N1c1ccccc1 (centres undefined)"
display_unit = "s"
numeric_value = 893

[[record]]
molecule = "Cc1ccc(-c2nc(NC(=O)CCCOc3ccccc3C)sc2C)cc1"
display_unit = "s"
numeric_value = 1270

[[record]]
molecule = "O=C(NCc1nnnn1C1CCCCC1)c1c(F)cccc1Cl"
display_unit = "s"
numeric_value = 763

[[record]]
molecule = "COc1ccc(C2=NC3(CCCCC3)N(CC(=O)Nc3cc(OC)cc(OC)c3)C2=O)cc1"
display_unit = "s"
numeric_value = 660

[[record]]
molecule = "O=C1C2N=NN(Cc3nc(-c4ccccc4)no3)C2C(=O)N1c1ccccc1 (centres undefined)"
display_unit = "s"
numeric_value = 906

[[record]]
molecule = "Cn1cc(S(=O)(=O)N2CCC(C(=O)N3CCCCC3)CC2)cc1C(=O)N1CCCC1"
display_unit = "s"
numeric_value = 688

[[record]]
molecule = "CC1CCCCN1CCNC(=O)c1ccc2ccnc(N3CCN(c4ccc(Cl)cc4)CC3)c2c1 (centres undefined)"
display_unit = "s"
numeric_value = 664

[[record]]
molecule = "CNC(=O)C1CCN(c2nc3ncn(CC(=O)NC(C)C)c(=O)c3s2)CC1"
display_unit = "s"
numeric_value = 570


---

assay: gradient 5% acetonitrile 3 min, to 50% in 2 min, to 85% in 15 min, held 3 min, 100 µL/min; details: column: Zorbax Extend-C18 2.1 x 50 mm; eluents: water / acetonitrile, 0.1% formic acid
Below, each entry is listed with its recorded RP-LC retention time.
MEASUREMENT KIND: RP-LC retention time (s)

[[record]]
compound = "Cc1sc(NC(=O)C2CCCCC2)nc1-c1ccc2c(c1)N(C)C(=O)CO2"
measurement_kind = "RP-LC retention time"
numeric_value = 1040

[[record]]
compound = "CCOc1cccc(-c2noc(-c3nnn4c3COC(c3ccc(C)cc3C)C4)n2)c1 (stereo not drawn)"
measurement_kind = "RP-LC retention time"
numeric_value = 643

[[record]]
compound = "Cc1nn2c(C)c(C(=O)OC(C)C)nnc2c1-c1ccc(F)cc1"
measurement_kind = "RP-LC retention time"
numeric_value = 1060

[[record]]
compound = "COC(=O)c1c(C)[nH]c(C(=O)N2CCC(CC(=O)NCCN3CCCCC3)CC2)c1C"
measurement_kind = "RP-LC retention time"
numeric_value = 584

[[record]]
compound = "Cc1nc(C)c(C(=O)Nc2nc(-c3ccc4c(c3)CCCC4)cs2)s1"
measurement_kind = "RP-LC retention time"
numeric_value = 1170

[[record]]
compound = "O=C(c1cc2ccccc2[nH]1)N1CCCC1"
measurement_kind = "RP-LC retention time"
numeric_value = 794

[[record]]
compound = "O=C(Cc1nnc2c(-c3nc(C4CC4)no3)cccn12)N1CCCCC1"
measurement_kind = "RP-LC retention time"
numeric_value = 616

[[record]]
compound = "COC(=O)[C@@H]1Cc2c([nH]c3ccccc23)C(CCc2ccccc2)N1C(C)=O (stereo partly drawn)"
measurement_kind = "RP-LC retention time"
numeric_value = 983

[[record]]
compound = "COc1ccc(OC)c(N2CC(c3nc(-c4ccc5c(c4)OCO5)no3)CC2=O)c1 (stereo not drawn)"
measurement_kind = "RP-LC retention time"
numeric_value = 886

[[record]]
compound = "CSc1cccc(NC(=O)Cc2csc(NC(=O)C3CCC(=O)N3)n2)c1 (stereo not drawn)"
measurement_kind = "RP-LC retention time"
numeric_value = 627

[[record]]
compound = "CCOc1ccccc1NS(=O)(=O)c1cc(-c2c(CC)noc2NC(C)=O)ccc1OC"
measurement_kind = "RP-LC retention time"
numeric_value = 840

[[record]]
compound = "CCn1cc(S(=O)(=O)N2C[C@@H](C(N)=O)[C@H](c3n[nH]c(C)n3)C2)cn1"
measurement_kind = "RP-LC retention time"
numeric_value = 576

[[record]]
compound = "CC(C)(C)c1ccc(C(=O)CCCN2CCC(OC(c3ccccc3)c3ccccc3)CC2)cc1"
measurement_kind = "RP-LC retention time"
numeric_value = 1190

[[record]]
compound = "O=c1n(Cc2cc(F)cc(F)c2)nc2ccc(S(=O)(=O)N3CCOCC3)cn12"
measurement_kind = "RP-LC retention time"
numeric_value = 816

[[record]]
compound = "CCc1nnc2nc(N3CCN(C(=O)c4cccc(N(C)C)c4)CC3)cc(C)n12"
measurement_kind = "RP-LC retention time"
numeric_value = 574

[[record]]
compound = "Cc1ccc(-c2csc(NC(=O)c3coc4ccccc4c3=O)n2)o1"
measurement_kind = "RP-LC retention time"
numeric_value = 1070

[[record]]
compound = "O=C(Nc1ccc(Br)cc1F)C1CCCN(c2ccc(=O)n(-c3cccc(F)c3)n2)C1 (stereo not drawn)"
measurement_kind = "RP-LC retention time"
numeric_value = 1020

[[record]]
compound = "CCOc1cc(=O)n2c(c1C(=O)Nc1ccc(F)cc1F)CCCC2"
measurement_kind = "RP-LC retention time"
numeric_value = 726

[[record]]
compound = "O=C(O)c1nnn(-c2ccc(F)cc2)c1-c1ccncc1"
measurement_kind = "RP-LC retention time"
numeric_value = 612

[[record]]
compound = "Cc1nccn1-c1ccc(=O)n(CCNC(=O)Cn2nc(-c3ccc(F)cc3)ccc2=O)n1"
measurement_kind = "RP-LC retention time"
numeric_value = 780

[[record]]
compound = "Clc1cccc(-c2nc3ccc(Cl)cn3c2Nc2ccc3c(c2)OCCO3)c1"
measurement_kind = "RP-LC retention time"
numeric_value = 939

[[record]]
compound = "COc1cccc(CNC(=O)Nc2ccc(-c3nc(-c4cc(C)ccc4C)co3)cc2)c1"
measurement_kind = "RP-LC retention time"
numeric_value = 1180

[[record]]
compound = "CC(O)(CCc1ccccc1)CNC(=O)C(=O)NCCC1=CCCCC1 (stereo not drawn)"
measurement_kind = "RP-LC retention time"
numeric_value = 936

[[record]]
compound = "CCc1ccc(-c2ccc(=O)n(CCc3nc(-c4ccc(F)cc4)no3)n2)cc1"
measurement_kind = "RP-LC retention time"
numeric_value = 1120

[[record]]
compound = "O=C(NCCCN1CCOCC1)c1csc(-c2ccc(N3CCCC3)nc2)n1"
measurement_kind = "RP-LC retention time"
numeric_value = 553

[[record]]
compound = "O=C(NCc1ccco1)C1CCN(c2cc(N3CCCCC3)ncn2)CC1"
measurement_kind = "RP-LC retention time"
numeric_value = 632

[[record]]
compound = "CCOc1ccc(-c2noc(Cn3c(=O)n(-c4ccc(F)cc4)c(=O)c4sccc43)n2)cc1OC"
measurement_kind = "RP-LC retention time"
numeric_value = 940

[[record]]
compound = "Cc1ccc(C2Cn3cnc(C(=O)N4CCC(C(=O)NCc5ccccc5C)CC4)c3CO2)cc1 (stereo not drawn)"
measurement_kind = "RP-LC retention time"
numeric_value = 810

[[record]]
compound = "O=C(NC1CCN(c2cc(-c3ccc(F)cc3)[nH]n2)C1)c1cc(F)ccc1Cl (stereo not drawn)"
measurement_kind = "RP-LC retention time"
numeric_value = 685

[[record]]
compound = "COc1cccc(CN2C[C@@H]3C(=O)N(CCN4CCc5ccccc5C4)C(=O)[C@@H]3C2)c1"
measurement_kind = "RP-LC retention time"
numeric_value = 590

[[record]]
compound = "CCN(CC)CCOCCOC(=O)C(CC)(CC)c1ccccc1"
measurement_kind = "RP-LC retention time"
numeric_value = 763

[[record]]
compound = "COc1ccc(C2=C(C)C(N3CCN(c4ccccn4)CC3)=NS2(=O)=O)cc1"
measurement_kind = "RP-LC retention time"
numeric_value = 620

[[record]]
compound = "COC(=O)C1C(O)CCC2CN3CCc4c([nH]c5ccccc45)C3CC21 (stereo not drawn)"
measurement_kind = "RP-LC retention time"
numeric_value = 673

[[record]]
compound = "CC(=O)c1cccc(NC(=O)N2CCc3cc(-c4ccc(C(=O)N5CCOCC5)cc4)ccc32)c1"
measurement_kind = "RP-LC retention time"
numeric_value = 918

[[record]]
compound = "O=C(NCc1cccc(C(F)(F)F)c1)c1cn2ccccc2n1"
measurement_kind = "RP-LC retention time"
numeric_value = 748

[[record]]
compound = "COc1cccc(-c2noc(-c3cc(N4CCN(c5ccccn5)CC4)nc4ccccc34)n2)c1OC"
measurement_kind = "RP-LC retention time"
numeric_value = 841

[[record]]
compound = "COc1ccc(C(=O)O)nc1C"
measurement_kind = "RP-LC retention time"
numeric_value = 552

[[record]]
compound = "O=C1CCCc2cc(S(=O)(=O)NCCCN3CCN(c4ccccc4F)CC3)ccc2N1"
measurement_kind = "RP-LC retention time"
numeric_value = 621


This collection of values is drawn from the METLIN SMRT retention time set (Domingo-Almenara et al. 2019).
